tested on: Candida albicans; test: Antifungal activity against Candida albicans ATCC 76615 after 24 hrs by micro-broth dilution method; format: functional; details: ATCC 76615, 24 h
Entries and their MIC values follow.
quantity: MIC (µg/mL)

>>> print(df.to_string())
                               smiles_record  readout_relation  measurement
 0      Clc1ccc(CN(CCn2ccnc2)CCn2ccnc2)cc1Cl                 >          256
 1        Clc1cccc(CN(CCn2cncn2)CCn2cncn2)c1                 >          256
 2   Cl.Clc1ccc(CN(CCn2ccnc2)CCn2ccnc2)cc1Cl                 >          256
 3        Clc1cccc(CN(CCn2ccnc2)CCn2ccnc2)c1                 >          256
 4   Cl.Fc1ccc(CN(CCn2cncn2)CCn2cncn2)c(F)c1                 =           32
 5  Fc1ccc(CN(CCn2cncn2)CCn2cncn2)c(F)c1.O=[N+]([O-])O                 =           64
 6        Clc1ccc(CN(CCn2ccnc2)CCn2ccnc2)cc1                 >          256
 7  Clc1ccc(CN(CCn2cncn2)CCn2cncn2)cc1Cl.O=[N+]([O-])O                 =          256
 8        Clc1ccc(CN(CCn2cncn2)CCn2cncn2)cc1                 >          256
 9  Cl.Clc1ccc(CN(CCn2ccnc2)CCn2ccnc2)c(Cl)c1                 =           64
10  Fc1ccc(CN(CCn2cnc3ccccc32)CCn2cnc3ccccc32)c(F)c1.O=[N+]([O-])O                 >          256
11  Clc1ccc(CN(CCn2cncn2)CCn2cncn2)c(Cl)c1.O=[N+]([O-])O                 =         0.25
12  Clc1ccc(CN(CCn2ccnc2)CCn2ccnc2)c(Cl)c1.O=[N+]([O-])O                 =          128

---

tested on: Escherichia coli; assay: Antibacterial activity against Escherichia coli ATCC 25922 after 24 hrs by micro-broth dilution method; type: functional; details: ATCC 25922, 24 h
quantity: MIC (µg/mL)

>>> print(df.to_string())
                              smiles_record  readout_relation  measurement
0                      OCCN(CCO)Cc1ccccc1Cl                 >          256
1        Clc1cccc(CN(CCn2cncn2)CCn2cncn2)c1                 >          256
2   Cl.Clc1ccc(CN(CCn2cncn2)CCn2cncn2)cc1Cl                 =           32
3  Clc1ccc(CN(CCn2ccnc2)CCn2ccnc2)c(Cl)c1.O=[N+]([O-])O                 =           32
4   Cl.Fc1ccc(CN(CCn2cncn2)CCn2cncn2)c(F)c1                 =           64
5        Clc1cccc(CN(CCn2ccnc2)CCn2ccnc2)c1                 =           32

---

test system: Candida albicans; experiment: Antifungal activity against Candida albicans ATCC 76615 after 24 hrs by micro-broth dilution method; assay type: functional; conditions: ATCC 76615, 24 h
Entries and their MIC values follow.
quantity: MIC (µg/mL)

                               smiles_record  quantity  readout_relation  measurement
 0  Cl.Clc1ccc(CN(CCn2cncn2)CCn2cncn2)c(Cl)c1       MIC                 =         0.25
 1                  OCCN(CCO)Cc1ccc(Cl)cc1Cl       MIC                 =          128
 2  Cc1cc2ncn(CCN(CCn3cnc4cc(C)c(C)cc43)Cc3ccc(Cl)cc3Cl)c2cc1C       MIC                 >          256
 3          Clc1ccccc1CN(CCn1cncn1)CCn1cncn1       MIC                 >          256
 4                    OCCN(CCO)Cc1ccc(F)cc1F       MIC                 =          256
 5    Clc1ccc(CN(CCn2cncn2)CCn2cncn2)c(Cl)c1       MIC                 =         0.25
 6  Cl.Fc1ccc(CN(CCn2cnc3ccccc32)CCn2cnc3ccccc32)c(F)c1       MIC                 >          256
 7          Clc1ccccc1CN(CCn1ccnc1)CCn1ccnc1       MIC                 >          256
 8                    OCCN(CCO)Cc1cccc(Cl)c1       MIC                 >          256
 9      Clc1ccc(CN(CCn2cncn2)CCn2cncn2)cc1Cl       MIC                 >          256
10    Clc1ccc(CN(CCn2ccnc2)CCn2ccnc2)c(Cl)c1       MIC                 =          128
11                OCCN(CCO)Cc1ccc(Cl)c(Cl)c1       MIC                 >          256

---

Entries and their MIC values follow.
system: Escherichia coli; test: Antibacterial activity against Escherichia coli ATCC 25922 after 24 hrs by micro-broth dilution method; assay type: functional; conditions: ATCC 25922, 24 h
quantity: MIC (µg/mL)

>>> print(df.to_string())
                              smiles_record  units_symbol  readout_relation  measurement
0          Clc1ccccc1CN(CCn1cncn1)CCn1cncn1         µg/mL                 =          256
1  Clc1ccc(CN(CCn2cncn2)CCn2cncn2)cc1Cl.O=[N+]([O-])O         µg/mL                 =           32
2                    OCCN(CCO)Cc1ccc(Cl)cc1         µg/mL                 =          256
3          Clc1ccccc1CN(CCn1ccnc1)CCn1ccnc1         µg/mL                 =           16
4                    OCCN(CCO)Cc1cccc(Cl)c1         µg/mL                 >          256
5  Cc1cc2ncn(CCN(CCn3cnc4cc(C)c(C)cc43)Cc3ccc(Cl)cc3Cl)c2cc1C         µg/mL                 =           16

---

test system: Candida albicans; assay: Antifungal activity against Candida albicans ATCC 76615 after 24 hrs by micro-broth dilution method; type: functional; conditions: ATCC 76615, 24 h
quantity: MIC

                               smiles_record  quantity  measurement
 0      Fc1ccc(CN(CCn2ccnc2)CCn2ccnc2)c(F)c1       MIC  > 256 µg/mL
 1  Clc1ccc(CN(CCn2cnc3ccccc32)CCn2cnc3ccccc32)c(Cl)c1       MIC  > 256 µg/mL
 2  Fc1ccc(CN(CCn2ccnc2)CCn2ccnc2)c(F)c1.O=[N+]([O-])O       MIC    128 µg/mL
 3                      OCCN(CCO)Cc1ccccc1Cl       MIC  > 256 µg/mL
 4  Clc1ccc(CN(CCn2ccnc2)CCn2ccnc2)cc1Cl.O=[N+]([O-])O       MIC  > 256 µg/mL
 5        OC(Cn1cncn1)(Cn1cncn1)c1ccc(F)cc1F       MIC    0.5 µg/mL
 6      Fc1ccc(CN(CCn2cncn2)CCn2cncn2)c(F)c1       MIC  > 256 µg/mL
 7                    OCCN(CCO)Cc1ccc(Cl)cc1       MIC  > 256 µg/mL
 8   Cl.Clc1ccc(CN(CCn2cncn2)CCn2cncn2)cc1Cl       MIC    128 µg/mL
 9   Cl.Fc1ccc(CN(CCn2ccnc2)CCn2ccnc2)c(F)c1       MIC    128 µg/mL
10  Fc1ccc(CN(CCn2cnc3ccccc32)CCn2cnc3ccccc32)c(F)c1       MIC  > 256 µg/mL
